OD 450 nm values by entry
Measured on: T1, SARS-CoV-2 NTD (SARS-CoV-2, UniProt P0DTC2 14-305)
T1 construct: domain: NTD
Measurement protocol: ELISA, purified IgG
Your answer should be a plain number; it is taken to be in OD 450 nm.

{"columns": ["Binder", "Endpoint result"],
 "data": [
  ["COV2-2068 (antibody, V domains shown) VH: EVQLVESGGGLVQPGGSLRLSCAASGFTVSSNYMSWVRQAPGKGLEWVSVIYPGGSAFYADSVKGRFTISRHNSNNTLCLQMNSLRTEDTAVYYCARSYDILTGYRDAFDIWGQGTMVTVSS VL: QSVLTQPPSVSGAPGQRVTISCTGSSSNIGSGSDVHWYQQLPGTAPKLLIYGNTNRPSGVPDRFSGSKSGTSASLAITGLQAEDEADYYCQSYDSRLSGFVVFGGGTKLTVL", 0.1]
]}

Just so you know, measured OD 450 nm for COV2-2103 (antibody, V domains shown) VH: EVQLVESGGGLVQPGGSLRLSCAASGFTFSRHWMTWVRQAPGKGLEWVANIKQDGSEKYYVDSVKGRLTISRDNAKNSLYLQMNSLRAEDTAVYYCARLGFYYGGADYWGQGTLVTVSS VL: NFMLTQPHSVSESPGKTVTISCTGSSGSIASNYVQWYQQRPGSAPTTVISEDNQRPSGVPDRFSGSIDSSSNSASLTISGLKTEDEADYYCQSYDGINRAWVFGGGTKLTVL came out at 0.12

Just so you know, measured OD 450 nm for COV2-2098 (antibody, V domains shown) VH: EVQLLESGGGLIQPGGSLRLSCAASGFTFSNYAMSWVRQAPGKGLEWVSGIISTSGGATYNADSVRGRFTTSRDNSKNILYLQMNSLRGEDTAVYYCVKGLFDWFPLWGQGTMVTVSS VL: DIVMTQSPATLSVSPGERAILSCRASQSVRSNLAWYQQKPGQAPRLLISGASTRATAIPARFSGSGSGTEFTLTITSLQSEDCAVYYCHQYNNWPQTFGQGTKVEIK came out at 0.15

The measurements presented in this section are drawn from patent US20230122364A1.
